Test system: CCRF-CEM
PROCEDURE_DETAILS: NCI tumour cell line growth inhibition, 48 h
Active and inactive are the calls of the source. Cut-off read from the data, not from the text of the source: active = GI50 up to about 1.1 µM and inactive = higher.
// classify into active, inactive

Sample answers from the record:
// query GET /call?item= CCOC(=O)/C(C#N)=C(/NS(=O)(=O)c1cc(C)c(Cl)cc1[S-])[n+]1ccc(N(C)C)cc1 returns the recorded outcome of this test.
// result inactive

// query Same read-out for Cc1cc(S(N)(=O)=O)c(SCc2nc(N)nc(N(C)C)n2)cc1Cl ?
// result inactive

// query What about this compound? CC12O[C@H](c3ccccc3)[C@H](c3ccccc3)N1C(=O)C1(C(=O)OCc3ccccc3)CC12 (some centres undefined)
// result inactive

// query Follow-up entry: COc1ccc(C(=O)/C=C/c2ccc(O)c(O)c2F)c(OC)c1
// result active

// query One more compound: O=C1/C(=C\c2cccc(Oc3ccccc3)c2)SC(c2ccccc2)N1Cc1ccccc1 (centres undefined)
// result inactive

// query Could you do the same for Nc1cc(N2CCCC2)nc(=O)n1Cc1ccccc1 , please?
// result inactive

Continuing:
// query Entry c1ccc2c(c1)N=C(NC1CCCCC1)CCN2 : call = ?
// result inactive

// query Entry Brc1ccccc1C1SCc2nc3ccccc3n21 (centres undefined) please
// result inactive

// query Cool, now C/C(=C\COP(=O)(O)OP(=O)(O)O)CC/C=C(\C)CNc1ccccc1
// result active

// query Now this one: CC1=NN(c2ccccc2)C(=O)/C1=C1\SC(c2ccccc2)(c2ccccc2)c2ccccc21
// result inactive

// query Also COC(=O)[C@H](CCSC)NC(=O)c1ccc(CNC(=O)/C(C)=C/c2ccccc2)cc1 , if possible.
// result inactive

// query Can you check CC(O)C(C(=O)O)N(CC1(O)OCC(O)C(O)C1O)N=O (centres undefined) next?
// result inactive

// query Consider next the compound COc1cc(CNc2c3ccccc3nc3ccccc23)cc(OC)c1OC in the same way.
// result inactive

// query And then N/N=C1/C(=N/O)CCc2nonc21 , what is it?
// result inactive

// query Try O=S(=O)(O)c1ccc(/N=N\c2ccc(/N=N\c3ccc(/C=C/c4ccc(/N=[N+](/[O-])c5ccc(/C=C/c6ccc(/N=N/c7ccc(/N=N\c8ccc(S(=O)(=O)O)cc8)cc7)cc6S(=O)(=O)O)c(S(=O)(=O)O)c5)cc4S(=O)(=O)O)c(S(=O)(=O)O)c3)cc2)cc1 next.
// result inactive

// query Check C/C=C(/C)C(=O)O[C@H]1CCN2CC=C(COC(=O)[C@@](O)([C@H](C)OC)C(C)(C)O)[C@H]12 too.
// result inactive

// query Same lookup for COC(=O)[C@]12CCC(C)(C)C[C@H]1[C@H]1C(=O)C=C3[C@@]4(C)C=C(C#N)C(=O)C(C)(C)[C@@H]4CC[C@@]3(C)[C@]1(C)CC2 , please.
// result active

// query Proceed to CCOC(=O)C1=CNC(C(=O)OCC)C1c1cccn1-c1ccc(Cl)cc1[N+](=O)[O-] (centres undefined)
// result inactive

// query Would you mind doing O/N=C1/CCC/C1=C\c1ccccc1 as well?
// result inactive

###

Test system: HOP-18
PROCEDURE_DETAILS: NCI tumour cell line growth inhibition, 48 h
Active and inactive are the calls of the source. No stated cut-off is given here; in the data, active = GI50 up to about 1.1 µM and inactive = higher.
Returns: one label drawn from active, inactive

// query Check the results log: what was the call for CC(c1ccccc1)/[N+]([O-])=C/c1ccccc1 (stereo unspecified) ?
// result inactive

Further cases:
// query # outcome recorded in this test, key = COc1ccc2c(-c3cc4ccccc4o3)cc(=O)oc2c1
// result inactive

// query Check COc1cc2c(cc1OC)C(Cc1cc(Br)c(OC)c(OC)c1)=[N+](C)CC2 too.
// result inactive

// query Try this molecule too: N#C/C(=C\c1ccc(O)c(O)c1)c1c(C#N)c(N)nn1-c1ccccc1
// result active

// query Would you kindly repeat that for CCOC(=N)/C(=C1\OC(=N)C(c2ccc(Cl)cc2)=C1O)c1ccc(Cl)cc1 ?
// result inactive
